- PROTOCOL DESCRIPTION: gradient 5% acetonitrile 3 min, to 50% in 2 min, to 85% in 15 min, held 3 min, 100 µL/min
- CONDITIONS: column: Zorbax Extend-C18 2.1 x 50 mm; eluents: water / acetonitrile, 0.1% formic acid
Hi there, I'd appreciate the recorded RP-LC retention time for every entry that follows.

List the reported RP-LC retention time of each molecule below.
1. COCCCNC(=O)c1sc2ncn(CC(=O)N3CC(C)CC(C)C3)c(=O)c2c1C (stereo not drawn)
2. Cn1c(=O)c2ccnn2c2ccc(C(=O)NC3CCCCC3)cc21
3. O=C(NCCc1ccc(Cl)cc1)c1nnc(-c2ccc(S(=O)(=O)N3CCCCC3)cc2)o1

# output
1: 713 s; 2: 742 s; 3: 1110 s
